# subject_of_test: huPPARα (Homo sapiens)
# Sequence (Q07869 1-468): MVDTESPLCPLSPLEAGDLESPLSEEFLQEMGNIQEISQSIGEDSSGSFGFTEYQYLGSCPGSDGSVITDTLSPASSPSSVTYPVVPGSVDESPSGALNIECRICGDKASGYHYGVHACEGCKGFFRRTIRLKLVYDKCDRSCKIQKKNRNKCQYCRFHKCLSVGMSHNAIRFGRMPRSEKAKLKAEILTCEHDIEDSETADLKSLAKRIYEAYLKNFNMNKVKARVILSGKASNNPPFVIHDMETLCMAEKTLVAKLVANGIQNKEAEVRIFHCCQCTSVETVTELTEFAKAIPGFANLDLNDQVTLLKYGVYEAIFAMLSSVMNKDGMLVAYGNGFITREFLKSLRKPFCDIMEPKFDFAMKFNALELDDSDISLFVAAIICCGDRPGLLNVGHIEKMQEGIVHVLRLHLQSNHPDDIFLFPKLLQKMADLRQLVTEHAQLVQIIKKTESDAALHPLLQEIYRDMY
# Sequence (P19793 1-462 partner): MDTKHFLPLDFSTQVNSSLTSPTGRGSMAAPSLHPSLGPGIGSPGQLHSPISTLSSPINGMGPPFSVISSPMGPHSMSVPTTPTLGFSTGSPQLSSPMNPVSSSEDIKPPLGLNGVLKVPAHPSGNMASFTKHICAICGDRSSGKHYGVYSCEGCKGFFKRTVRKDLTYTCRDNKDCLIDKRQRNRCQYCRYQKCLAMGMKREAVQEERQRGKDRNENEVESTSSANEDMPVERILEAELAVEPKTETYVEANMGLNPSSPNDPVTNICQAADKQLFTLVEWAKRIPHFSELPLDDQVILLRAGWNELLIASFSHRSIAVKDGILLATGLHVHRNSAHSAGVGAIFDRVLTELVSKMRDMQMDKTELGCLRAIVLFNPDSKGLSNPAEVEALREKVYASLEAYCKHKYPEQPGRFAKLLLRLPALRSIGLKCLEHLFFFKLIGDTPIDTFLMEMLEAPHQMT
test_readout: IC50 (nM)

Examples with answers:
{"columns": ["compound", "subject_of_test", "IC50 [nM]"],
 "data": [
  ["Cc1oc(-c2cccs2)nc1CCOc1ccc(CC(C)(Oc2ccc(C(F)(F)F)cc2)C(=O)O)cc1 (stereo not drawn)", "huPPARα (Homo sapiens)", 64],
  ["COc1ccc(OC(C)(Cc2ccc(OCCc3nc(-c4cccs4)oc3C)cc2)C(=O)O)cc1 (stereo not drawn)", "huPPARα (Homo sapiens)", 85],
  ["Cc1oc(C2(C)CCCCC2)nc1CCOc1ccc(C[C@](C)(Oc2ccc(F)cc2)C(=O)O)cc1", "huPPARα (Homo sapiens)", 61],
  ["Cc1oc(C2CCCCC2)nc1CCOc1ccc(CC(C)(Oc2cccc(F)c2)C(=O)O)cc1 (stereo not drawn)", "huPPARα (Homo sapiens)", 63],
  ["Cc1ccc(OC(C)(Cc2ccc(OCCc3nc(C4CCCCC4)oc3C)cc2)C(=O)O)cc1 (stereo not drawn)", "huPPARα (Homo sapiens)", 66],
  ["Cc1cccc(OC(C)(Cc2ccc(OCCc3nc(-c4cccs4)oc3C)cc2)C(=O)O)c1 (stereo not drawn)", "huPPARα (Homo sapiens)", 64],
  ["Cc1oc(-c2cccs2)nc1CCOc1ccc(CC(C)(Oc2cccc(C(C)(C)C)c2)C(=O)O)cc1 (stereo not drawn)", "huPPARα (Homo sapiens)", 73],
  ["COc1cccc(OC(C)(Cc2ccc(OCCc3nc(C4CCCCC4)oc3C)cc2)C(=O)O)c1 (stereo not drawn)", "huPPARα (Homo sapiens)", 76],
  ["Cc1oc(C2CCCCC2)nc1CCOc1ccc(CC(C)(Oc2ccc(F)cc2)C(=O)O)cc1 (stereo not drawn)", "huPPARα (Homo sapiens)", 71]
]}

P: Cc1ccc(OC(C)(Cc2ccc(OCCc3nc(-c4cccs4)oc3C)cc2)C(=O)O)cc1C (stereo not drawn)
Q: CCC(Cc1ccc(OCCc2nc(C3(C)CCCCC3)oc2C)cc1)(Oc1ccccc1)C(=O)O (stereo not drawn)
R: Cc1oc(C2(C)CCCCC2)nc1CCOc1ccc(CC(C)(Oc2ccccc2)C(=O)O)cc1 (stereo not drawn)
Put the entries in order of IC50, starting with the largest number. # output: labels, in the requested order
Q, P, R
(Q: 175 nM, P: 72 nM, R: 41 nM)
